Tested on: CAKI-1 renal
Assay: NCI tumour cell line growth inhibition, 48 h
Each entry below carries its reported TGI.
reported.property: TGI

INSERT INTO results (molecule, reported_property, result) VALUES
  ('O=C(NCC(O)CNC(=O)C(F)(F)F)C(F)(F)F', 'TGI', '> 100 µM'),
  ('COc1cc2c(cc1OC)C(=O)Cc1ccc(OC)c(OC)c1CN(C)CC2', 'TGI', '> 100 µM'),
  ('COc1ccc2c(ccc3c(COC(=O)NC(C)C)c(COC(=O)NC(C)C)n(C)c32)c1', 'TGI', '8.56 µM'),
  ('COc1cc(S(=O)(=O)Nc2nc(-c3ccc(N4C(=O)/C(=C/c5ccccc5[N+](=O)[O-])N=C4c4ccccc4)cc3)cs2)ccc1Cl', 'TGI', '> 100 µM'),
  ('CCOC(=O)/C(=C(/C)NCC(C)C)c1cc(O)c(O)c2c(C)cc(=O)[nH]c12', 'TGI', '> 100 µM'),
  ('CCc1ccc2c(c1)N(CCO)C1=C(C(=O)OC1)C2c1cccc(Cl)c1 (configuration not stated)', 'TGI', '35.1 µM'),
  ('COc1c(OC/C=C(\C)CCC=C(C)C)ccc2ccc(=O)oc12', 'TGI', '> 100 µM'),
  ('COC(=O)C1C2CC3C1C3C2C(=O)OC (configuration not stated)', 'TGI', '> 100 µM'),
  ('C#CCCCOc1ncccn1', 'TGI', '> 100 µM'),
  ('COC(=O)/C=C/c1cn(C(C)=O)c2ccc(Br)cc12', 'TGI', '44.2 µM'),
  ('O=C(c1cc2c(c3ccccc13)NCCN=C2C(F)(F)F)C(F)(F)F', 'TGI', '> 100 µM'),
  ('O=C(NCc1ccco1)c1ccc(NC2=C(Cl)C(=O)N(Cc3ccccc3)C2=O)cc1', 'TGI', '3.39 µM'),
  ('COCn1c(C)c(C)c2c(=O)oc(N(C)C)nc21', 'TGI', '> 100 µM'),
  ('c1ccc2c(c1)[nH]c1c2nc2ncccn21', 'TGI', '> 100 µM'),
  ('COc1cc(Nc2nc3ccc(C(F)(F)F)cc3nc2C(=O)O)cc(OC)c1OC', 'TGI', '61.7 µM'),
  ('Cc1cc(-c2nc3ccc(F)cc3s2)ccc1N', 'TGI', '> 100 µM'),
  ('N#CC1=C(N)NC(=S)NC12Nc1ccccc1N2', 'TGI', '> 100 µM'),
  ('Brc1cc2c(cc1C1SCCS1)OCO2', 'TGI', '> 100 µM'),
  ('COc1cc(N(Cc2ccc3nc(OC)c(OC)nc3c2)Cc2ccc3nc(OC)c(OC)nc3c2)cc(OC)c1OC', 'TGI', '> 50 µM'),
  ('O=c1[nH]cnc2c1CCCN2', 'TGI', '> 100 µM'),
  ('NS(=O)(=O)c1ccc(Nc2c3ccccc3nc3c(C(=O)NCCO)cccc23)cc1', 'TGI', '0.546 µM'),
  ('O=C(NCc1ccncc1)C12CC3CC(C1)CC(c1ccc(Cl)cc1)(C3)C2', 'TGI', '24.9 µM'),
  ('CC(C)=CCN1c2ccc(Cl)cc2NC(=O)CC1C (configuration not stated)', 'TGI', '43.8 µM'),
  ('O=C1c2ccccc2C(=O)N1C/C=C/CO', 'TGI', '> 100 µM'),
  ('COC1CC(NC(=O)C(F)(F)F)C(OC(C)=O)C(C)O1 (configuration not stated)', 'TGI', '> 100 µM'),
  ('CNc1nnc(CNc2ccc(-c3nnc(NC)n3N)cc2)n1N', 'TGI', '> 100 µM'),
  ('C=C1C(=O)O[C@@H]2C1C[C@@H](O)C(=C)CC/C=C(\C)CCC[C@H](C)[C@H]2OC(C)=O (some centres not stated)', 'TGI', '14.7 µM'),
  ('COC(=O)Nc1nc2ccc(NC(=O)c3cccs3)cc2[nH]1', 'TGI', '> 100 µM'),
  ('N#C/C(=C/Sc1ccccc1)C(=O)O', 'TGI', '79.5 µM'),
  ('COc1ccc(-c2cc(-c3ccc(O)cc3)nc3n[nH]c(N)c23)cc1', 'TGI', '78.3 µM'),
  ('CC(C)(C)OC(=O)C1CC[C@@H](CC(=O)Oc2ccc([N+](=O)[O-])cc2)N1 (some centres not stated)', 'TGI', '> 100 µM'),
  ('O=C(NN=C1CCCCC1)c1[nH]c2ccc(F)cc2c1-c1ccccc1', 'TGI', '> 100 µM'),
  ('Cc1nc(C(N)=S)sc1C(=O)CC(=O)C(=O)Nc1nc2ccccc2[nH]1', 'TGI', '> 100 µM'),
  ('Cc1ccc(NC2=N/C(=C/c3ccccc3)C(Cl)=N2)cc1', 'TGI', '> 100 µM'),
  ('COC1O[C@H]2[C@H]3[C@@H]1[C@@H](OS(=O)(=O)c1ccc(C)cc1)C(=O)N3C[C@H]2O (some centres not stated)', 'TGI', '> 100 µM'),
  ('CC[C@]12C=CCN3CC[C@@]4(c5cc(Br)c(OC)cc5N(C)[C@H]4[C@@](O)(C(=O)N[C@@H](Cc4ccc(O)cc4)C(=O)OC)[C@@H]1O)[C@@H]32', 'TGI', '77.9 µM'),
  ('CCCCCCCCCCCCOC1C(C(CC(=O)N2CCN(c3cccc(C(F)(F)F)c3)CC2)NS(=O)(=O)c2cc(Cl)cc(Cl)c2)OC2OC(C)(C)OC21 (configuration not stated)', 'TGI', '> 100 µM'),
  ('COc1cccc(Cc2cc(=O)c3ccc(C)nc3[nH]2)c1', 'TGI', '> 100 µM'),
  ('Cn1/c(=N\N=C(\CNCCO)[C@@H](O)[C@@H]2OC(c3ccccc3)OC[C@H]2O)sc2ccccc21 (some centres not stated)', 'TGI', '38.6 µM'),
  ('COc1cc(OC)c(NC(=O)c2cc3ccccc3cc2O)cc1Cl', 'TGI', '6.68 µM'),
  ('Nc1c(C(=O)c2ccc(CCCN3CCOCC3)cc2)cnn1-c1ccc(F)cc1', 'TGI', '> 25 µM'),
  ('COC(=O)/C=C(/OC)[C@H](C)[C@H](/C=C/c1csc(-c2csc(C(C)C)n2)n1)OC', 'TGI', '> 100 µM');
